Target: His-tagged KRAS G12D protein (Homo sapiens, UniProt P01116, G12D)
Sequence (P01116 1-188 isoform P01116-2 G12D): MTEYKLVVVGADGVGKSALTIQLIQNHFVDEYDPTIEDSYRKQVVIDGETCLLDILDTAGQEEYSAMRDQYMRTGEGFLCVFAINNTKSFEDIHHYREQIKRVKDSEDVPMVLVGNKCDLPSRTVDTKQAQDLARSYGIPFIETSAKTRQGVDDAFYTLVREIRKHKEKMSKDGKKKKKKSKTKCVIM
Assay: KRAS G12D TR-FRET Assay
Type: binding
Conditions: TR-FRET binding
pIC50: −log10 of the molar value.
quantity: pIC50

compound	quantity	result
C[C@@H]1CCOC[C@H]2CN(CCO2)c2nc(OC[C@@]34CCCN3C[C@H](F)C4)nc3c(F)c(ncc23)-c2c(c(Cl)cc3[nH]ncc23)C1 (single isomer, unassigned)	pIC50	8.05
Fc1c2ncc3c(nc(OC[C@@]45CCCN4C[C@H](F)C5)nc13)N1CCOC[C@H](C1)c1cnn(n1)CCCc1c(Cl)cc3[nH]ncc3c1-2 (single isomer, unassigned)	pIC50	8.15
C[C@@]12COCCN(C1)c1nc(OC[C@@]34CCCN3C[C@H](F)C4)nc3c(F)c(ncc13)-c1c3c(cc4[nH]ncc14)CC[C@@H]3CCOC(=O)O2 (single isomer, unassigned)	pIC50	6.03

[A] Cc1cc2[nH]ncc2c2c1CCCC(F)C(=O)N[C@@H]1CCCCN(C1)c1nc(OC[C@@]34CCCN3C[C@H](F)C4)nc3c(F)c-2ncc13 (single isomer, unassigned) [Example 159]
[B] Cc1cc2[nH]ncc2c2c1CCCCO[C@H](C)[C@@H]1CN(CCO1)c1nc(OC[C@@]34CCCN3C[C@H](F)C4)nc3c(F)c-2ncc13 (single isomer, unassigned)
query: When their pIC50 values are compared, which is larger, A or B ? Pick one and reply with its label.
result: A

====

Target: His-tagged KRAS G12D protein (Homo sapiens, UniProt P01116, G12D)
Assay: KRAS G12D TR-FRET Assay
Assay type: binding
Settings: TR-FRET binding
quantity: IC50 (nM)

molecule	IC50 [nM]
Cc1cc2[nH]ncc2c2c1CCC[C@@H](F)C(=O)N(C)[C@@H]1CCCN(C1)c1nc(OC[C@@]34CCCN3C[C@H](F)C4)nc3c(F)c-2ncc13 (single isomer, unassigned)	19
CN1C(=O)OCCCc2c(Cl)cc3[nH]ncc3c2-c2ncc3c(nc(OC[C@@]45CCCN4C[C@H](F)C5)nc3c2F)N2C[C@@H](O)C[C@@H]1C2 (single isomer, unassigned)	81
O=C1OCCCc2c(Cl)cc3[nH]ncc3c2-c2ncc3c(nc(OC[C@H]4CC[C@@H]5COCCN54)nc3c2F)N2CCOC[C@H](C2)O1	6
C[C@@]12CCCN(C1)c1nc(OC[C@@]34CCCN3C[C@H](F)C4)nc3c(F)c(ncc13)-c1cc(O)cc3ccc(F)c(c13)CCCC(=O)O2 [Example 43, bis(2,2,2-trifluoroacetate)]	4

[P] O=C1OCCCc2c(Cl)cc3[nH]ncc3c2-c2ncc3c(nc(OC[C@@]45CCCN4C[C@H](F)C5)nc3c2F)N2CC[C@H]3CCN1[C@H]3C2 (single isomer, unassigned)
[Q] O=C1CCCCc2c(Cl)cc3[nH]ncc3c2-c2ncc3c(nc(OC[C@@]45CCCN4C[C@H](F)C5)nc3c2F)N2CC[C@@H]3CCN1[C@@H]3C2 (single isomer, unassigned)
[R] O=C1OCCCc2c(Cl)cc3[nH]ncc3c2-c2ncc3c(nc(OC[C@@]45CCCN4C[C@H](F)C5)nc3c2F)N2CC[C@@H]3CCN1[C@@H]3C2 (single isomer, unassigned)
[S] Cc1cc2[nH]ncc2c2c1CCCOC(=O)N[C@@]1(C)CCCCN(C1)c1nc(OC[C@@]34CCCN3C[C@H](F)C4)nc3c(F)c-2ncc13 (single isomer, unassigned)
query: Order by IC50, ascending. Respond with the label ranking, as requested.
result: P, Q, R, S
(P: 3 nM, Q: 79 nM, R: 287 nM, S: 50000 nM)

====

Target: His-tagged KRAS G12D protein (Homo sapiens, UniProt P01116, G12D)
Test: KRAS G12D TR-FRET Assay
Type: binding
Settings: TR-FRET binding
Counter-ions that a name gives are not always drawn.
quantity: IC50 (nM)

Past entries and their recorded results:
molecule	targetDesc	IC50, nM
C[C@@]12CCCN(C1)c1nc(OC[C@@]34CCCN3C[C@H](F)C4)nc3c(F)c(ncc13)-c1cc(O)cc3c1[C@@H](CCCC(=O)N2)CCC3 (single isomer, unassigned) [Example 27, 2,2,2-trifluoroacetate salt]	His-tagged KRAS G12D protein (Homo sapiens, UniProt P01116, G12D)	7
C[C@@]12COCCN(C1)c1nc(OC[C@@]34CCCN3C[C@H](F)C4)nc3c(F)c(ncc13)-c1c(c(F)cc3[nH]ncc13)CCCOC(=O)O2 [Example 184]	His-tagged KRAS G12D protein (Homo sapiens, UniProt P01116, G12D)	4
Cc1cc2[nH]ncc2c2c1CCCCCCC1(O)CCCN(C1)c1nc(OC[C@@]34CCCN3C[C@H](F)C4)nc3c(F)c-2ncc13 (mixture of isomers) [Example 44]	His-tagged KRAS G12D protein (Homo sapiens, UniProt P01116, G12D)	160

[P] O=C1CCCCc2c(Cl)cccc2-c2ncc3c(nc(OC[C@@]45CCCN4C[C@H](F)C5)nc3c2F)N2CC[C@H]3CCN1[C@H]3C2 (single isomer, unassigned) [Example 162]
[Q] CN(C)CC1(COc2nc3c4cnc(c(F)c4n2)-c2c(c(Cl)cc4[nH]ncc24)CCOC(=O)O[C@H]2C[C@]4(CCCN3C4)C2)CC1 [Example 334]
query: Please indicate which item has the smaller measured IC50: P versus Q # answer = label of selected item
result: Q

====

Tested on: Phosphorylation of ERK1/2 in AsPC-1 cells
Experiment: Phospho-ERK1/2 MSD Assay
Format: cell-based, human
Details: read-out: 2 h p-ERK (AsPC-1 cells), IC50
Counter-ions that a name gives are not always drawn.
quantity: pIC50
Remember the convention: pIC50 equals -log10 of concentration in molar.

query: I have this molecule here, `O=C1COCCCc2c(Cl)cc3[nH]ncc3c2-c2ncc3c(nc(OC[C@@]45CCCN4C[C@H](F)C5)nc3c2F)N2CC[C@H]3CCN1[C@H]3C2` , and I need its recorded pIC50.
result: 8.89

query: # lookup: pIC50 of Cc1cc2[nH]ncc2c2c1CCCCOCC1CN(CCC1(F)F)c1nc(OC[C@@]34CCCN3C[C@H](F)C4)nc3c(F)c-2ncc13 (stereo partly drawn)
result: 6.21

query: So what does the record say about pIC50 for O[C@@H]1C[C@H]2COCCCCc3c(Cl)cc4[nH]ncc4c3-c3ncc4c(nc(OC[C@@]56CCCN5C[C@H](F)C6)nc4c3F)N(C1)C2 (mixture of isomers) [Example 408, 2,2,2-trifluoroacetate salt] ?
result: 7.28

====

Biological target: His-tagged KRAS G12D protein (Homo sapiens, UniProt P01116, G12D)
Test: KRAS G12D TR-FRET Assay
Type: binding
Details: TR-FRET binding
pIC50: −log10 of the molar value.
quantity: pIC50

Worked cases, pIC50 given:
molecule	result
O=C1CCCCc2c(Cl)cc3[nH]ncc3c2-c2ncc3c(nc(OC[C@@]45CCCN4C[C@H](F)C5)nc3c2F)N2CC[C@H]3CCN1[C@H]3C2 (single isomer, unassigned)	8.52
Cc1cc2[nH]ncc2c2c1CCCCO[C@@H](C)[C@H]1CN(CCO1)c1nc(OC[C@@]34CCCN3C[C@H](F)C4)nc3c(F)c-2ncc13 (single isomer, unassigned)	5.94
Cc1cc2[nH]ncc2c2c1CCC[C@H](F)C(=O)N(C)[C@@H]1CCCN(C1)c1nc(OC[C@@]34CCCN3C[C@H](F)C4)nc3c(F)c-2ncc13 (single isomer, unassigned)	8.00

[I] O=C1CCCc2c(Cl)cc3[nH]ncc3c2-c2ncc3c(nc(OC[C@@]45CCCN4C[C@H](F)C5)nc3c2F)N2CCCC(CC1)C2 (mixture of isomers)
[II] C[C@@]12CCCN(C1)c1nc(OC[C@@]34CCCN3C[C@H](F)C4)nc3c(F)c(ncc13)-c1cccc3ccc(F)c(c13)CCOC(=O)N2 (single isomer, unassigned)
query: Please state the entry with greater pIC50 among I and II . Reply briefly: the label of your chosen item.
result: II
(II: 7.85, I: 7.26)

====

System: MIA PaCa-2 cells
Assay: MIA PaCa-2 CTG Assay (CellTiter-Glo cell viability, 72 h)
Format: cell-based, human
Conditions: Homo sapiens, second value of cell, read-out: G12D/C/V Cell Proliferation CTG (72 h) Mia PaCa-2
quantity: IC50 (nM)

[A] C[C@@]12CCCCN(C1)c1nc(OC[C@@]34CCCN3C[C@H](F)C4)nc3c(F)c(ncc13)-c1c(c(Cl)cc3[nH]ncc13)CCCC(F)C(=O)N2 (mixture of isomers)
[B] Fc1c2ncc3c(nc(OC[C@@]45CCCN4C[C@H](F)C5)nc13)N1CCC[C@]3(C1)C[C@H](C3)OCCCCc1c(Cl)cc3[nH]ncc3c1-2
[C] O=C1COCCc2c(Cl)cc3[nH]ncc3c2-c2ncc3c(nc(OC[C@@]45CCCN4C[C@H](F)C5)nc3c2F)N2CC[C@H]3CCN1[C@H]3C2
query: I would appreciate it if you could sort these 3 compounds by IC50, starting from the smallest number. # the answer lists labels in the order requested
result: B, A, C
(B: 26 nM, A: 90 nM, C: 675 nM)
